The origin of these recorded values is the supplement of paper PMC8728848.

Would you mind telling me the reported glycan array binding signal (z-score) of each entry?
# tgt: GlcNAc(b1-2)Man(a1-3)[GlcNAc(b1-4)][GlcNAc(b1-2)Man(a1-6)]Man(b1-4)GlcNAc(b1-4)[Fuc(a1-6)]GlcNAc
# assay protocol: glycan array binding signal (z-score within array); higher = stronger binding
# run conditions: glycan notation: IUPAC condensed, linker removed
The full list was thinned out, with the strongest signals kept by preference.
Number, no unit, nothing else.

Data point: Erv41-EDTA (Saccharomyces cerevisiae), Q04651 (protein) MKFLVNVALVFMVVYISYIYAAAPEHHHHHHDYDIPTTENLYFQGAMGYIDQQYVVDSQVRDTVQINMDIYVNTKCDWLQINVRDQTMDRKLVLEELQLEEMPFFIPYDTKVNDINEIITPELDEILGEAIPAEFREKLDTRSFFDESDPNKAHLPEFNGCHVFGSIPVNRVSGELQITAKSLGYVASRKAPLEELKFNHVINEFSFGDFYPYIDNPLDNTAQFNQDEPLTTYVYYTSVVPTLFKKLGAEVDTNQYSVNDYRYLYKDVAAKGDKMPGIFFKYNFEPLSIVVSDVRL ; glycan array binding signal (z-score) = 0.162

Data point: rCNL (Clitocybe nebularis), B2ZRS9 (protein) SITPGTYNITNVAYTNRLIDLTGSNPAENTLIIGHHLNKTPSGYGNQQWTLVQLPHTTIYTMQAVNPQSYVRVRDDNLVDGAALVGSQQPTPVSIESAGNSGQFRIKIPNLGLALTLPSDANSTPIVLGEVDETSTNQLWAFESVSAV ; glycan array binding signal (z-score) = -0.228

Data point: Sebin1 (Coprinopsis cinerea), A8PEE3 (protein) MTSPFYAHIHNVQDDNTWRFTLIFANRATADEWWRAISEAPANTSIAKSITRVTPQYYTHDVNIWNIWNFFADGNIKSISERFRGRLFIVLENDRGGRGITVIPPVPIVDHVSGNWFYIRSKTAPHLFWYYDERRSSIYASKEKRTRFKISIRNPSSQTPKNAIMINTDDVTIHIKENLYVGVDNNLGHIIPTRAYRTFKFGELESGAIAGFDVVENIEERCSSTFDGASLSISGPDSSSPGEPWELV ; glycan array binding signal (z-score) = -0.296

Data point: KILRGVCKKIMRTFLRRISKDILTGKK [NK2 (Sus scrofa)] ; glycan array binding signal (z-score) = -1.11

Data point: MAL-II (Maackia amurensis), P93248 (protein) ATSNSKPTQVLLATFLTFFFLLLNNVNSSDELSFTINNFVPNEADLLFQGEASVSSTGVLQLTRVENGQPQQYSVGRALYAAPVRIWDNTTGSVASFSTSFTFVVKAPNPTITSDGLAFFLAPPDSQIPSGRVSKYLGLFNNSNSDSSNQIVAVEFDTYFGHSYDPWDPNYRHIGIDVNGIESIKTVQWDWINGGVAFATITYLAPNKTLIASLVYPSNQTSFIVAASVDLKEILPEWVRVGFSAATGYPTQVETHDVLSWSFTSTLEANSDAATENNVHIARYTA ; glycan array binding signal (z-score) = -0.148
